So I've got a bunch of molecules here, and I need their melting point values.
Answers are plain numbers, in °C.

Sample answers from the record:
molecule=Cl.N#CCC(=O)N1CCC(CCN2CCN(c3cccc(Cl)c3Cl)CC2)CC1 value=228
molecule="O=C(C=C1CCC(CCN2CCN(c3cccc(C(F)(F)F)c3)CC2)CC1)N1CCCC1 (stereo not drawn) [Example 291]" value=87
molecule="CC(=O)NCC(=O)N[C@H]1CC[C@H](CCN2CCN(c3ccccc3)CC2)CC1 [Example 128]" value=227
molecule="COc1ccccc1N1CCN(CCC2CCN(CC(C)=O)CC2)CC1.Cl.Cl [Example 20]" value=260
molecule=CC(=O)CN1CCC(CCN2CCN(c3ccc(Cl)cc3Cl)CC2)CC1.Cl.Cl value=283

Please give melting point, item by item, for the list that follows.
1. CC(C)(C)c1nc(N2CCN(CC[C@H]3CC[C@H](NC(=O)CC#N)CC3)CC2)cc(C(F)(F)F)n1 [Example 177]
2. O=C(CC1C=CCC1)N[C@H]1CC[C@H](CCN2CCN(c3cccc(F)c3)CC2)CC1 (stereo partly drawn) [Example 420]
3. N#CCC(=O)N[C@H]1CC[C@H](CCN2CC=C(c3cc(F)cc(C(F)(F)F)c3)CC2)CC1

Result:
[188, 188, 163]

Request: Assign melting point to the following record: Cc1cccc(N2CCN(CC[C@H]3CC[C@H](NC(=O)CC#N)CC3)CC2)c1C [Example 219]
Result: 166

* * *

Hi there, I'd appreciate the recorded melting point for every entry that follows.
Give bare numbers, in °C.

structure_smiles=Cc1ccccc1C1=CCN(CC[C@H]2CC[C@H](NC(=O)CC#N)CC2)CC1 measured_property="melting point" unit_abbrev=°C value=166
structure_smiles=CCOCC(=O)N[C@H]1CC[C@H](CCN2CC=C(c3ccc(F)cc3)CC2)CC1 measured_property="melting point" unit_abbrev=°C value=122
structure_smiles=Cc1c(N2CCN(CC[C@H]3CC[C@H](NC(=O)CCCC#N)CC3)CC2)cccc1C(F)(F)F measured_property="melting point" unit_abbrev=°C value=162

Can you give me melting point for all of these, one by one?
1. CCOCC(=O)N[C@H]1CC[C@H](CCN2CCN(c3cccc(Cl)c3C)CC2)CC1
2. CC(=O)CN1CCC(CCN2CCN(c3cccc4cccnc34)CC2)CC1.Cl.Cl
3. CCc1cccc(N2CCN(CC[C@H]3CC[C@H](NC(=O)C4=CCCCO4)CC3)CC2)c1
4. N#CCC(=O)N[C@H]1CC[C@H](CCN2CC=C(c3ccccc3F)CC2)CC1

Result:
1. 143
2. 270
3. 135
4. 156

* * *

measured property: melting point

Consider the following illustrative entries.
structure_smiles=N#CCC(=O)N[C@H]1CC[C@H](CCN2CCN(c3ccc(F)cc3F)CC2)CC1 measured_property="melting point" value="188 °C"
structure_smiles=COc1ccc(C)cc1N1CCN(CCC2CCN(CC(C)=O)CC2)CC1.Cl.Cl measured_property="melting point" value="260 °C"
structure_smiles=CC(=O)CN1CCC(CCN2CCN(c3cccc(C(=O)C(C)C)c3)CC2)CC1.Cl.Cl measured_property="melting point" value="250 °C"
structure_smiles=O=C(N[C@H]1CC[C@H](CCN2CC=C(c3ccccc3)CC2)CC1)C1=CCCC1 measured_property="melting point" value="202 °C"
structure_smiles=Cl.N#CCCC(=O)N1CCC(CCN2CC=C(c3cc(C(F)(F)F)ccc3F)CC2)CC1 measured_property="melting point" value="150 °C"

For every record below, what is its melting point?
1. Cl.Cl.NC(=O)CN1CCC(CCN2CCN(c3cccc(C(F)(F)F)c3)CC2)CC1
2. CCc1ccccc1N1CCN(CC[C@H]2CC[C@H](NC(=O)CCCC#N)CC2)CC1
3. N#CCCCC(=O)N[C@H]1CC[C@H](CCN2CCN(c3cccc(OC(F)(F)F)c3)CC2)CC1
4. COCC(=O)N[C@H]1CC[C@H](CCN2CCN(c3cccc(C(F)(F)F)c3C)CC2)CC1

Result:
1: 120 °C; 2: 124 °C; 3: 133 to 134 °C; 4: 159 °C

* * *

measured property: melting point (°C)
One number for each entry, in °C.

Previously resolved entries follow.
structure_smiles=N#Cc1ccccc1N1CCN(CC[C@H]2CC[C@H](NC(=O)C3=CCCC3)CC2)CC1 measured_property="melting point" unit_abbrev=°C value=167
structure_smiles=COCCCC(=O)N[C@H]1CC[C@H](CCN2CCN(c3cccc(C(F)(F)F)c3F)CC2)CC1 measured_property="melting point" unit_abbrev=°C value=175
structure_smiles=CS(=O)(=O)c1cccc(N2CCN(CC[C@H]3CC[C@H](NC(=O)CC(F)(F)F)CC3)CC2)c1 measured_property="melting point" unit_abbrev=°C value=173
structure_smiles=CC(=O)CN1CCC(CCN2CCN(c3ccc(Cl)c(Cl)c3Cl)CC2)CC1.Cl.Cl measured_property="melting point" unit_abbrev=°C value=275
structure_smiles=COCCCC(=O)N[C@H]1CC[C@H](CCN2CCN(c3ccc(Cl)c(C(F)(F)F)c3)CC2)CC1 measured_property="melting point" unit_abbrev=°C value=171
structure_smiles=CCc1cccc(N2CCN(CC[C@H]3CC[C@H](NC(=O)CC(F)(F)F)CC3)CC2)c1 measured_property="melting point" unit_abbrev=°C value=154
structure_smiles=O=C(N[C@H]1CC[C@H](CCN2CCN(c3cccc(C(F)(F)F)c3)CC2)CC1)C1CC=CC1 measured_property="melting point" unit_abbrev=°C value=183
structure_smiles=N#CCC(=O)N[C@H]1CC[C@H](CCN2CCN(c3ccc(F)c(C(F)(F)F)c3)CC2)CC1 measured_property="melting point" unit_abbrev=°C value=181
structure_smiles=CCOc1ccccc1N1CCN(CC[C@H]2CC[C@H](NC(=O)CCCC#N)CC2)CC1 measured_property="melting point" unit_abbrev=°C value=137
structure_smiles=O=C(COc1ccccc1)N[C@H]1CC[C@H](CCN2CCN(c3cccc(F)c3)CC2)CC1 measured_property="melting point" unit_abbrev=°C value=150

Next item in the queue.
Request: For N#CCC(=O)N[C@H]1CC[C@H](CCN2CCN(c3cc(Cl)c(Cl)cc3Cl)CC2)CC1 , write its melting point.
Result: 200

* * *

measured property: melting point (°C)
Answers are plain numbers, in °C.

Here are 2 compounds together with their reported answers.
structure_smiles=CC(=O)CN1CCC(CCN2CCN(c3cccc(C(C)(C)C)c3)CC2)CC1.Cl.Cl value=257
structure_smiles=N#CCCC(=O)N[C@H]1CC[C@H](CCN2CCN(c3ccc(C(F)(F)F)cc3)CC2)CC1 value=207

Go through the list and state melting point for each entry.
1. COCCCC(=O)N[C@H]1CC[C@H](CCN2CCN(c3cccc(Cl)c3C)CC2)CC1
2. CC(=O)CCCC(=O)N[C@H]1CC[C@H](CCN2CCN(c3cccc(C(F)(F)F)c3)CC2)CC1

Result:
1: 188; 2: 158

Please supply melting point for each of the following items, keeping them in order.
1. CC(=O)CN1CCC(CCN2CC=C(c3ccc(Cl)cc3)CC2)CC1
2. N#CCCCC(=O)N[C@H]1CC[C@H](CCN2CCN(c3csc4cc(C(F)(F)F)ccc34)CC2)CC1
3. CC(=O)CN1CCC(CCN2CCN(c3cccc(C(F)F)c3)CC2)CC1.Cl.Cl
4. N#CCC(=O)N[C@H]1CC[C@H](CCN2CCN(c3cccc4ccccc34)CC2)CC1
5. CC(=O)CN1CCC(CCN2CCN(c3cccc(OC(C)C)c3)CC2)CC1.Cl.Cl
6. Cc1cc(Cl)cc(N2CCN(CC[C@H]3CC[C@H](NC(=O)CC#N)CC3)CC2)c1
7. N#CCC(=O)N[C@H]1CC[C@H](CCN2CCN(c3cc(F)c(C(F)(F)F)c(F)c3)CC2)CC1

Result:
[101, 169, 265, 174, 237, 185, 231]

* * *

Counter-ions that a name gives are not always drawn.
Hi there, I'd appreciate the recorded melting point for every entry that follows.
Give bare numbers, in °C.

Known results for compounds:
compound=CCOc1cccc(N2CCN(CCC3CCN(CC(C)=O)CC3)CC2)c1.Cl.Cl value=246
compound=CC(=O)CN1CCC(CCN2CCN(c3ccccc3C)CC2)CC1.Cl.Cl value=289
compound=O=C(N[C@H]1CC[C@H](CCN2CCN(c3cccc(C(F)(F)F)c3)CC2)CC1)C1=CCCC1 value=175
compound=Cc1cccc(C)c1N1CCN(CC[C@H]2CC[C@H](NC(=O)CC#N)CC2)CC1 value=143
compound=Cc1ccc(N2CCN(CC[C@H]3CC[C@H](NC(=O)CCCC#N)CC3)CC2)cc1Cl value=168
compound=N#CCCCC(=O)N[C@H]1CC[C@H](CCN2CCN(c3ccccc3C#N)CC2)CC1 value=160
compound=N#CCCCC(=O)N[C@H]1CC[C@H](CCN2CCN(c3ccc4c(c3)OCO4)CC2)CC1 value=189
compound=O=C(CC(F)(F)F)N[C@H]1CC[C@H](CCN2CCN(c3cccc(C(F)(F)F)c3)CC2)CC1 value=156

Consider the following items and state reported melting point for each.
1. COCCCC(=O)N[C@H]1CC[C@H](CCN2CCN(c3cccc(C)c3)CC2)CC1
2. Cc1ccc(N2CCN(CC[C@H]3CC[C@H](NC(=O)CCCC#N)CC3)CC2)cc1
3. N#CCC(=O)CN1CCC(CCN2CCN(c3cccc(C(F)(F)F)c3)CC2)CC1 (as salt: hydrochloride)

Result:
1: 148; 2: 189; 3: 160
